- System: Prolinoborus 1 (Prolinoborus fasciculus)
- Test summary: relative growth (AUC of 72 h growth curve relative to DMSO control, dAUC) (ratio); higher = more growth (less inhibition), active = hit call of the paper;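 active = growth AUC significantly below the DMSO wells by Dunnett test; inactive = the rest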
- Assay conditions: 20 µM
Hi there, use one of these labels in your reply, thanks! YES for active, NO for inactive

Prompt line: Which outcome was entered for the compound CC1(C)[C@H](/C=C(\Cl)C(F)(F)F)[C@@H]1C(=O)OC(C#N)c1cccc(Oc2ccccc2)c1 (stereo partly specified) in this test?
Response line: NO

Prompt line: Which outcome was entered for the compound N#Cc1nn(-c2c(Cl)cc(C(F)(F)F)cc2Cl)c(N)c1[S+]([O-])C(F)(F)F (stereo unspecified) in this test?
Response line: NO

Prompt line: Which outcome was entered for the compound C#CCOc1ccc(CCNC(=O)C(OCC#C)c2ccc(Cl)cc2)cc1OC (stereo unspecified) in this test?
Response line: NO

Prompt line: Which outcome was entered for the compound CC1=NNC(=O)N(/N=C/c2cccnc2)C1 in this test?
Response line: NO

Prompt line: Which outcome was entered for the compound COc1ncc(F)c2nc(S(=O)(=O)Nc3c(F)cccc3F)nn12 in this test?
Response line: NO

Prompt line: Which outcome was entered for the compound O=[N+]([O-])c1cc(C(F)(F)F)c(Cl)c([N+](=O)[O-])c1Nc1ncc(C(F)(F)F)cc1Cl in this test?
Response line: YES

----------
- System: Microbacterium 1 (Microbacterium arborescens)
- Test summary: relative growth (AUC of 72 h growth curve relative to DMSO control, dAUC) (ratio); higher = more growth (less inhibition), active = hit call of the paper
- Assay conditions: 20 µM
Give measured relative growth for each item. Keep answers brief.

Prompt line: For the molecule COP(=S)(OC)Oc1nc(Cl)c(Cl)cc1Cl , report relative growth.
Response line: 1.04 (inactive)

Prompt line: For the molecule CC(C)NC(=O)N1CC(=O)N(c2cc(Cl)cc(Cl)c2)C1=O , report relative growth.
Response line: 0.984 (inactive)

Prompt line: For the molecule Fc1ccc([C@]2(Cn3cncn3)O[C@H]2c2ccccc2Cl)cc1 (racemic) , report relative growth.
Response line: 1.01 (inactive)

Prompt line: For the molecule CCC(CC)Nc1c([N+](=O)[O-])cc(C)c(C)c1[N+](=O)[O-] , report relative growth.
Response line: 1.04 (inactive)

Prompt line: For the molecule CCCCCCCCCCCCNC(=N)N , report relative growth.
Response line: 0.881 (inactive)

Prompt line: For the molecule COCC(=O)N(c1c(C)cccc1C)C(C)C(=O)OC (stereo unspecified) , report relative growth.
Response line: 1.02 (inactive)

----------
- Test system: Serratia 1 (Serratia sp. 2015-2462-01)
- Test summary: relative growth (AUC of 72 h growth curve relative to DMSO control, dAUC) (ratio); higher = more growth (less inhibition), active = hit call of the paper
- Assay conditions: 20 µM
Give measured relative growth for each item. Keep answers brief.
Write the value as a bare number.

Prompt line: Give relative growth; test system Serratia 1 (Serratia sp. 2015-2462-01); molecule CC(C)N(C)S(=O)(=O)NC(=O)c1cc(-n2c(=O)cc(C(F)(F)F)n(C)c2=O)c(F)cc1Cl
Response line: 0.977

Prompt line: Give relative growth; test system Serratia 1 (Serratia sp. 2015-2462-01); molecule CC1(C(=O)Nc2ccc(O)c(Cl)c2Cl)CCCCC1
Response line: 0.976

Prompt line: Give relative growth; test system Serratia 1 (Serratia sp. 2015-2462-01); molecule C[C@@H]1[C@@H](c2ccc(Cl)cc2)SC(=O)N1C(=O)NC1CCCCC1
Response line: 1

Prompt line: Give relative growth; test system Serratia 1 (Serratia sp. 2015-2462-01); molecule CCCN(CCC)C(=O)SCc1ccccc1
Response line: 0.998

Prompt line: Give relative growth; test system Serratia 1 (Serratia sp. 2015-2462-01); molecule CCNc1nc(Cl)nc(NC(C)C)n1
Response line: 0.928

Prompt line: Give relative growth; test system Serratia 1 (Serratia sp. 2015-2462-01); molecule CCc1cc(C)cc(CC)c1-c1c(OC(=O)C(C)(C)C)n2n(c1=O)CCOCC2
Response line: 0.972
